- EXPERIMENTAL TARGET: hPTPRG (Homo sapiens)
- Construct: The ICRs of PTPRG, PTPRS, and PTPRB and the catalytic domains of PTPN1 and PTPN6; GST (N); made in house; host or cells: Escherichia coli BL21
- Sequence (P23470 763-1445 limits assumed): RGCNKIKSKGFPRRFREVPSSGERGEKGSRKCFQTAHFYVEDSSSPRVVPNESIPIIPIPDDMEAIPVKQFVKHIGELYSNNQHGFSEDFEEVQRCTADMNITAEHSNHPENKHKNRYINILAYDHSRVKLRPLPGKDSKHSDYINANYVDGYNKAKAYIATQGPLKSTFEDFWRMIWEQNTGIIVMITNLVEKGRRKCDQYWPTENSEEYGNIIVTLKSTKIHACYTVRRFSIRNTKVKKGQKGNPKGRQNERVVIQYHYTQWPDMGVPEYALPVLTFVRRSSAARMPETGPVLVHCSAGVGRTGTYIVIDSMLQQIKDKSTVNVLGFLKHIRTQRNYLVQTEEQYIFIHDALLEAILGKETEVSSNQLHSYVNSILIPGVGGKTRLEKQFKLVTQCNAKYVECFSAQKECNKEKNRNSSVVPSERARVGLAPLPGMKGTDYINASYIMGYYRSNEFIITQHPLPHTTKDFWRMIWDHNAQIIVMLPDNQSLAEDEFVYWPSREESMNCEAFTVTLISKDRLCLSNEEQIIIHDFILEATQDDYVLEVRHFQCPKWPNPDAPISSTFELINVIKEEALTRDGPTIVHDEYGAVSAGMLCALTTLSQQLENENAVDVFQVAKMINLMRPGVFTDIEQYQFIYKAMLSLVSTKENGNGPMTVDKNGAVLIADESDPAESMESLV
- ASSAY DETAILS: In vitro PTPase assay (DiFMUP), PTPRG
- Assay type: biochemical
- CONDITION DESCRIPTION: 60-min preincubation
EXPERIMENTAL READOUT: pIC50
Give bare numbers, as −log10 of the molar value.

I am curious: what pIC50 value has been reported for CCOc1ccc(C(F)(F)F)cc1CSc1ccsc1C(=O)NS(=O)(=O)c1ccccc1 ? 5.32
